test system: mRNA; test: mRNA encapsulation (modified Quant-iT RiboGreen assay); assay type: physicochemical; settings: RiboGreen, without vs with Triton X-100
Starred links: 1 amine or outer side, 2 acyl side, 3 side chain; linkers in the order of their positions; H or OH if unused. Non-standard residues stand in square brackets, D forms with d. Residues, ends and D or L forms follow the SMILES beside them. *: point of attachment. N(3-lauroyloxypropyl)Gly = CCCCCCCCCCCC(=O)OCCCNCC(=O)O; N(2-decanoyloxyethyl)Gly = CCCCCCCCCC(=O)OCCNCC(=O)O; Gly(N-(CH2)3O-octanoyl) = CCCCCCCC(=O)OCCCNCC(=O)O; N(3-imidazol-1-ylpropyl)Gly = O=C(O)CNCCCn1ccnc1; Gly(N-3-morpholinopropyl) = O=C(O)CNCCCN1CCOCC1; N(2-ethylhexyl)Gly = CCCCC(CC)CNCC(=O)O; X2 = CCCCCCC(CCCC)CN(CC(=O)[*:2])[*:1]; N(CH(CH2OH)2)Gly = O=C(O)CNC(CO)CO; NHexGly = CCCCCCNCC(=O)O; For = O=C*
measurementType: mean percent encapsulation of RNA (%)

compound	resultNumber
CCCCCCCC(=O)OCCCN(CC(=O)N(CC(=O)N(CC(=O)N(CCCOC(=O)CCCCCCC)CC(=O)N(CC(N)=O)CC(CCCC)CCCCCC)CC(CC)CCCC)CC(CCCC)CCCCCC)C(=O)CN(CC(CC)CCCC)C(=O)CNC(CO)CO (stereo not shown) [Compound 104] (H-[N(CH(CH2OH)2)Gly][N(2-ethylhexyl)Gly][Gly(N-(CH2)3O-octanoyl)][X2][N(2-ethylhexyl)Gly][Gly(N-(CH2)3O-octanoyl)][X2]-NH2)	93.6
CCCCCCCCCC(=O)OCCN(CC(N)=O)C(=O)CN(CCOC(=O)CCCCCCCCC)C(=O)CN(CC(CC)CCCC)C(=O)CN(CCOC(=O)CCCCCCCCC)C(=O)CN(CCOC(=O)CCCCCCCCC)C(=O)CN(CC(CC)CCCC)C(=O)CNC(CO)CO (stereo not shown) [Compound 105] (H-[N(CH(CH2OH)2)Gly][N(2-ethylhexyl)Gly][N(2-decanoyloxyethyl)Gly][N(2-decanoyloxyethyl)Gly][N(2-ethylhexyl)Gly][N(2-decanoyloxyethyl)Gly][N(2-decanoyloxyethyl)Gly]-NH2)	73.2
CCCCCCCCCC(=O)OCCN(CC(N)=O)C(=O)CN(CC(CC)CCCC)C(=O)CN(CCOC(=O)CCCCCCCCC)C(=O)CN(CCOC(=O)CCCCCCCCC)C(=O)CN(CC(CC)CCCC)C(=O)CN(CCOC(=O)CCCCCCCCC)C(=O)CNC(CO)CO (stereo not shown) [Compound 56] (H-[N(CH(CH2OH)2)Gly][N(2-decanoyloxyethyl)Gly][N(2-ethylhexyl)Gly][N(2-decanoyloxyethyl)Gly][N(2-decanoyloxyethyl)Gly][N(2-ethylhexyl)Gly][N(2-decanoyloxyethyl)Gly]-NH2)	23.8
CCCCCCCCCCCC(=O)OCCCN(CC(=O)N(CC(=O)N(CC(=O)N(CCCOC(=O)CCCCCCCCCCC)CC(=O)N(CC(N)=O)CC(CC)CCCC)CC(CC)CCCC)CC(CC)CCCC)C(=O)CN(CC(CC)CCCC)C(=O)CN(C=O)CCCN1CCOCC1 (stereo not shown) [Compound 64] (For-[Gly(N-3-morpholinopropyl)][N(2-ethylhexyl)Gly][N(3-lauroyloxypropyl)Gly][N(2-ethylhexyl)Gly][N(2-ethylhexyl)Gly][N(3-lauroyloxypropyl)Gly][N(2-ethylhexyl)Gly]-NH2)	67.3
CCCCCCCCCCCC(=O)OCCCN(CC(=O)N(CC(N)=O)CC(CC)CCCC)C(=O)CN(CCCCCC)C(=O)CN(CC(CC)CCCC)C(=O)CN(CCCOC(=O)CCCCCCCCCCC)C(=O)CN(CCCCCC)C(=O)CNC(CO)CO (stereo not shown) [Compound 54] (H-[N(CH(CH2OH)2)Gly][NHexGly][N(3-lauroyloxypropyl)Gly][N(2-ethylhexyl)Gly][NHexGly][N(3-lauroyloxypropyl)Gly][N(2-ethylhexyl)Gly]-NH2)	33.5
CCCCCCCCCC(=O)OCCN(CC(=O)N(CCOC(=O)CCCCCCCCC)CC(=O)N(CC(=O)N(CCOC(=O)CCCCCCCCC)CC(=O)N(CCOC(=O)CCCCCCCCC)CC(=O)N(CC(N)=O)CC(CC)CCCC)CC(CC)CCCC)C(=O)CNCCCn1ccnc1 (stereo not shown) [Compound 79] (H-[N(3-imidazol-1-ylpropyl)Gly][N(2-decanoyloxyethyl)Gly][N(2-decanoyloxyethyl)Gly][N(2-ethylhexyl)Gly][N(2-decanoyloxyethyl)Gly][N(2-decanoyloxyethyl)Gly][N(2-ethylhexyl)Gly]-NH2)	97.5
CCCCCCCCCCCC(=O)OCCCN(CC(=O)N(CC(=O)N(CCCCCC)CC(=O)N(CCCOC(=O)CCCCCCCCCCC)CC(=O)N(CC(=O)N(CCCCCC)CC(N)=O)CC(CC)CCCC)CC(CC)CCCC)C(=O)CN(C=O)CCCN1CCOCC1 (stereo not shown) [Compound 70] (For-[Gly(N-3-morpholinopropyl)][N(3-lauroyloxypropyl)Gly][N(2-ethylhexyl)Gly][NHexGly][N(3-lauroyloxypropyl)Gly][N(2-ethylhexyl)Gly][NHexGly]-NH2)	77.2

Data origin, for the record: patent US20260373248A1
